B1: CROP (parent)
chain: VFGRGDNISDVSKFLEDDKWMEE

variants of: B1; experiment: protein stability index of a GFP-peptide fusion (GPS, HEK-293T) (PSI 1-6); higher = more stable; conditions: c terminus: native;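 also: lentivirally expressed fusions sorted by FACS into six bins by GFP to DsRed ratio, PSI derived from sequencing read proportions per bin multiplied by bin number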
Measured Parameter: protein stability index

INSERT INTO results (variant_label, measured_parameter, reading) VALUES
  ('F14L', 'protein stability index', 2.43),
  ('V11L', 'protein stability index', 1.61),
  ('L15S', 'protein stability index', 2.28),
  ('S12H', 'protein stability index', 2.31),
  ('M21P', 'protein stability index', 1.38),
  ('S9G', 'protein stability index', 2.06),
  ('D6K', 'protein stability index', 2.01),
  ('E16V', 'protein stability index', 2.59),
  ('D17H', 'protein stability index', 1.34),
  ('M21Y', 'protein stability index', 2.28),
  ('F2K', 'protein stability index', 2.16),
  ('V11K', 'protein stability index', 2.6),
  ('G3P', 'protein stability index', 2.84),
  ('V11G', 'protein stability index', 2.11),
  ('V1P', 'protein stability index', 2.76),
  ('V1I', 'protein stability index', 1.43),
  ('D6V', 'protein stability index', 2.96),
  ('D18K', 'protein stability index', 2.69),
  ('K13S', 'protein stability index', 2.65),
  ('D10I', 'protein stability index', 1.99),
  ('M21W', 'protein stability index', 1.97),
  ('S12D', 'protein stability index', 2),
  ('D18V', 'protein stability index', 1.77),
  ('L15P', 'protein stability index', 2.81),
  ('V1A', 'protein stability index', 2.11),
  ('F2L', 'protein stability index', 1.97),
  ('D17F', 'protein stability index', 3.45),
  ('V1W', 'protein stability index', 3.69),
  ('D17N', 'protein stability index', 2.26),
  ('K19W', 'protein stability index', 1.75),
  ('G5F', 'protein stability index', 1.88),
  ('M21T', 'protein stability index', 2.51),
  ('V11S', 'protein stability index', 2.71),
  ('D18S', 'protein stability index', 1.31),
  ('W20T', 'protein stability index', 4.17),
  ('R4T', 'protein stability index', 2.3),
  ('N7D', 'protein stability index', 2.89),
  ('F14A', 'protein stability index', 4.31),
  ('F2N', 'protein stability index', 2.87),
  ('V1M', 'protein stability index', 1.84),
  ('D6R', 'protein stability index', 2.16),
  ('F2Q', 'protein stability index', 2.99),
  ('D10E', 'protein stability index', 2.1),
  ('G3V', 'protein stability index', 1.51),
  ('D10M', 'protein stability index', 2.75),
  ('E23N', 'protein stability index', 4.41);
